# measurement target: Neu5Ac(a2-6)Gal(b1-4)GlcNAc(b1-3)Gal(b1-4)GlcNAc(b1-6)[Gal(b1-3)]GalNAc
# protocol notes: glycan array binding signal (z-score within array); higher = stronger binding
# experimental context: glycan notation: IUPAC condensed, linker removed
The sample as a whole holds a higher share of the strongest signals than the screen did.
property name: glycan array binding signal (z-score)
One number for each entry.

As a guide, the following entries are already answered.
binder	value measured
pTFF2 (Sus scrofa), P01359 (protein) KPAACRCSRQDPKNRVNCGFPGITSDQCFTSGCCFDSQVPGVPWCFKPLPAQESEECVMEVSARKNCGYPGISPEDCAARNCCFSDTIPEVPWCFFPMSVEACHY	-0.859
HML-Native (Hypnea musciformis), P84871 (protein) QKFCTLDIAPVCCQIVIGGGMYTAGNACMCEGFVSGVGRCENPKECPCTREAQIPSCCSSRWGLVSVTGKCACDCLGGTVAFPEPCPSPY	-0.205
Clec18A (Homo sapiens) (protein) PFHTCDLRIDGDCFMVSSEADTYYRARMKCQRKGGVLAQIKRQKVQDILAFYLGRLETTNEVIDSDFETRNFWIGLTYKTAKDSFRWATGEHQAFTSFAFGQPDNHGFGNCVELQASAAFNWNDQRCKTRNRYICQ	0.884
PFL (Pseudomonas fluorescens) (protein) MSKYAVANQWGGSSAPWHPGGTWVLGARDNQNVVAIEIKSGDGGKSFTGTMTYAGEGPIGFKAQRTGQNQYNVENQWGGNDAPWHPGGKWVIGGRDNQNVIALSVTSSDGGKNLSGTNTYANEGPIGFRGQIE	-0.118
GSL-I (Griffonia simplicifolia) (protein) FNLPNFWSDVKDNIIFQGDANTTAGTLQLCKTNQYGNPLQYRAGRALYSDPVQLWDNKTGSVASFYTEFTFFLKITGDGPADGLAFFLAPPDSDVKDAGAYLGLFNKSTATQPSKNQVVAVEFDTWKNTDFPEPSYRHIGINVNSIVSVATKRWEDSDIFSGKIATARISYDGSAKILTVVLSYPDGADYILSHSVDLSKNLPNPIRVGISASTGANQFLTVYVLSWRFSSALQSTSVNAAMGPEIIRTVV	-0.048

Turning now to a further record.
Exercise: Identify measured glycan array binding signal (z-score) associated with GNL (Galanthus nivalis) (protein) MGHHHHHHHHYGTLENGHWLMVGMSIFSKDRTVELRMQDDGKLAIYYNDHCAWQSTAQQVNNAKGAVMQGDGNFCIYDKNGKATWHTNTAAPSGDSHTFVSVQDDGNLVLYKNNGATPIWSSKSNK
Key: -0.216
